Tested on: A549
Assay: NCI tumour cell line growth inhibition, 48 h
The source made the active and inactive calls. Cut-off read from the data, not from the text of the source: active = GI50 up to about 1.1 µM and inactive = higher.
Documented GI50 across a set of compounds

C=C1C(=O)OC2CC(C)C3C=CC(=O)C3CC12 (stereo not given) : 7.93 µM (inactive)
O1C2C1C1OC1C1OC1C1OC21 (stereo not given) : > 100 µM (inactive)

Now look at this entry.
**Q:** Find the recorded GI50 belonging to `O=P(O)(O)CCP(=O)(O)O` and report it.
**A:** > 100 µM (inactive)

====

Tested on: EKVX
Assay: NCI tumour cell line growth inhibition, 48 h
The source made the active and inactive calls. Cut-off read from the data, not from the text of the source: active = GI50 up to about 1.1 µM and inactive = higher.
Hello, when you answer, please use one of the following outcomes: active, inactive

COc1ccc(OC)c2c1C=CC(Br)=CC2 : active
CC(=O)OC(C)(C)/N=N/c1ccc(Br)cc1 : inactive
Nc1n2nc(-c3ccccc3)sc2n[n+]1CC(=O)c1ccccc1 : inactive
Cc1nnc2sc(Cc3cnc(N)s3)nn12 : inactive
Nc1ncnc2c1nc(-c1ccccc1)n2C1OC(CO)C(O)C1O (configuration not stated) : inactive
Cc1cccc(C)c1NC(=S)N/C=C(\C#N)C(N)=O : inactive

**Q:** I'd appreciate the recorded outcome for `COc1ccc(/C=c2\s/c(=C3/SC(=S)N(c4ccccc4)C3=O)n(-c3ccccc3)c2=O)cc1` from this test.
**A:** inactive

**Q:** I'd appreciate the recorded outcome for CC(=O)/N=S(/NC(=O)c1ccc(C)cc1)C(Cl)(Cl)Cl (configuration not stated) from this test.
**A:** inactive

**Q:** I'd appreciate the recorded outcome for `CCOC(=O)CCCn1nnc(C(=O)OCC)c1C(=O)OCC` from this test.
**A:** inactive

**Q:** I'd appreciate the recorded outcome for `O=C(CSc1nc2ccc(I)cc2c(=O)n1Cc1ccccc1)NNC(=O)c1ccccc1` from this test.
**A:** inactive

**Q:** I'd appreciate the recorded outcome for `CCOC(=O)c1cc(Br)c(-c2cc(C)co2)[nH]1` from this test.
**A:** inactive

**Q:** I'd appreciate the recorded outcome for `N#Cc1ncn(CCO)c1N` from this test.
**A:** inactive

====

Tested on: SF-268
Assay: NCI tumour cell line growth inhibition, 48 h
Active and inactive are the calls of the source. Cut-off read from the data, not from the text of the source: active = GI50 up to about 1.1 µM and inactive = higher. Non-standard residues stand in square brackets, D forms with d. Residues, ends and D or L forms follow the SMILES beside them. *: point of attachment. Phe(4-NO2) = N[CH](Cc1ccc([N+](=O)[O-])cc1)C(=O)O; Boc = CC(C)(C)OC(=O)*
Endpoint: GI50

Would you please look over these solved cases?
O=[N+]([O-])c1ccc2c(c1)nc(Cc1ccccc1)n2C[C@@H]1CCCN2CCCCC12 (stereo partly drawn) : 45.8 µM (inactive)
COC(=O)/C(=N\NC(=S)NN)C(C(=O)OC)C(=O)C(=O)Nc1cccc(C(F)(F)F)c1 (stereo not drawn) : > 100 µM (inactive)
COC(=O)CCC(NC(=O)OC(C)(C)C)C(=O)NC(Cc1ccc([N+](=O)[O-])cc1)C(=O)NC(CCC(=O)OC)C(=O)OC (stereo not drawn) (Boc-Glu(OMe)-[Phe(4-NO2)]-Glu(OMe)-OMe; configuration not given here) : > 100 µM (inactive)
CC(=O)NNc1nc(C)c(C(=O)NNC(=O)C(=O)Nc2nc3ccc([N+](=O)[O-])cc3s2)s1 : 49.1 µM (inactive)
CCCN(CCC)C(=O)Cc1c2n(c3ccccc13)CCCc1ccccc1-2 : 15.1 µM (inactive)

**Q:** Short answer please: GI50, SF-268, entry `CCOC(=O)CCCn1nnc(C(=O)OCC)c1C(=O)OCC`
**A:** > 100 µM (inactive)

**Q:** Short answer please: GI50, SF-268, entry `CN(C)c1ccc(C=C2N=C(c3ccccc3)N(c3cc(C(=O)c4ccccc4)ccc3N3C(=O)/C(=C/c4ccc(N(C)C)cc4)N=C3c3ccccc3)C2=O)cc1`
**A:** 14.4 µM (inactive)

**Q:** Short answer please: GI50, SF-268, entry `O=C(Cc1csc(N/N=C2\C(=O)Nc3ccccc32)n1)Nc1ccccc1`
**A:** 17.7 µM (inactive)
